B1: library; a variant is named by its letters at N, in order (parent)
chain: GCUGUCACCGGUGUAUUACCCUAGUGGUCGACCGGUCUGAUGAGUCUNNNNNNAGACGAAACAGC

Variants of: B1
Test: FACS-Seq fitted mean relative fluorescence mCherry/BFP without ligand (log10 relative fluorescence); ligand: hypoxanthine (xanthine aptamer); higher = higher reporter protein expression
Conditions: HEK293T, ligand present: no
Returns Criterion met if the recorded FACS-Seq fitted mean (log10) is greater than or equal to 0.1, and Criterion not met otherwise.

AUGGAC	Criterion met
CCCGCA	Criterion not met
UCCAGU	Criterion met
GUUAAU	Criterion met
CUAUGG	Criterion met

Quick check: does AGACCC have FACS-Seq fitted mean (log10) greater than or equal to 0.1?
Criterion met

Does the reported FACS-Seq fitted mean (log10) for UAACCG fall at or above the 0.1 mark?
Criterion met

Please tell me: is the variant AUAGAC at or over 0.1 in terms of FACS-Seq fitted mean (log10)?
Criterion met

Is FACS-Seq fitted mean (log10) for GCUGUG at or above 0.1?
Criterion met

Does the reported FACS-Seq fitted mean (log10) for UCAAAA fall at or above the 0.1 mark?
Criterion met

Textbook exercise: given the entry GUAAAG , state whether its FACS-Seq fitted mean (log10) is greater than or equal to 0.1.
Criterion not met

Hi team, for GCUGCG , is the recorded FACS-Seq fitted mean (log10) at or above 0.1?
Criterion met

Dear colleague, could you confirm whether GACGAG has FACS-Seq fitted mean (log10) at or above 0.1?
Criterion met
